- EXPERIMENTAL TARGET: 3C-like protease (Infectious bronchitis virus, UniProt Q3Y5H1)
- Sequence (Q3Y5H1 whole entry): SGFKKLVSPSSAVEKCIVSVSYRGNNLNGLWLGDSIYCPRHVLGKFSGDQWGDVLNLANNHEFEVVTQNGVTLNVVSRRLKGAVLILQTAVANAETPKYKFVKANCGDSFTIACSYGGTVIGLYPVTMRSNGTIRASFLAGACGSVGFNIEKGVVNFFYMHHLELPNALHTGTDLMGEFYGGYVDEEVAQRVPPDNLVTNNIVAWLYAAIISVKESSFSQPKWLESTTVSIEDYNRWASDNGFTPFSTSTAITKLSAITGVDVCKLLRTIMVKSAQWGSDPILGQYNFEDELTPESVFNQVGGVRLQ
pIC50: −log10 of the molar value.
ASSAY ENDPOINT: pIC50

The compound identified as `CN1CCN(C(=O)c2cc(Br)cc([N+](=O)[O-])c2N[C@@H]2CCCC[C@@H]2NC(=O)c2cc(=O)[nH]c3c(F)cccc23)CC1` registered its pIC50 at < 5.00

* * *

- EXPERIMENTAL TARGET: Replicase polyprotein 1ab (Severe acute respiratory syndrome coronavirus 2)
ASSAY ENDPOINT: IC50 (µM)
// return numeric value only (unit: µM, not printed)

Known results for molecules:
>>> result_value("O=C(NCC1CCCO1)C1CN(c2ccc(Cl)c(Cl)c2)CCN1C(=O)c1cc(=O)[nH]c2ccccc12 (stereo not drawn)")
0.35
>>> result_value("O=C(N[C@H]1CCCC[C@H]1Nc1c(C(=O)N2CCOCC2)cc(C2CC2)cc1[N+](=O)[O-])c1cc(=O)[nH]c2ccccc12")
0.0096
>>> result_value("O=C(NCCN1CCOCC1)C1CN(c2ccc(Cl)c(Cl)c2)CCN1C(=O)c1cc(=O)[nH]c2ccccc12 (stereo not drawn)")
0.84
>>> result_value("CNC(=O)c1cc(Br)cc([N+](=O)[O-])c1N[C@@H]1CCCC[C@@H]1NC(=O)c1cc(=O)[nH]c2ccc(F)cc12")
0.0582

Then this molecule:
The molecule identified as CCCCNC(=O)C1CN(c2ccc(Cl)c(Cl)c2)CCN1C(=O)c1cc(=O)[nH]c2ccccc12 (stereo not drawn) registered its IC50 at 0.58

* * *

- EXPERIMENTAL TARGET: Replicase polyprotein 1ab (Severe acute respiratory syndrome coronavirus 2)
- TEST CONDITIONS: dose 31.25-1000 nM, time 100.0 sec
Returns: string. Value is true if measured K is below 0.02 s⁻¹, and false if it is greater than or equal to it.

>>> category_label("CNC(=O)c1cc(Br)cc([N+](=O)[O-])c1N[C@@H]1CCCC[C@@H]1NC(=O)c1cc(=O)[nH]c2c(F)cccc12")
"true"
>>> category_label("CNC(=O)c1cc(Br)cc([N+](=O)[O-])c1N[C@@H]1CCCC[C@@H]1NC(=O)c1cc(=O)[nH]c2ccccc12")
"true"
>>> category_label("O=C(c1cc(=O)[nH]c2ccccc12)N1CCN(c2ccc(Cl)c(Cl)c2)CC1CN1CCOCC1 (stereo not given)")
"false"
>>> category_label("CN1CCN(C(=O)c2cc(Br)cc([N+](=O)[O-])c2N[C@@H]2CCCC[C@@H]2NC(=O)c2cc(=O)[nH]c3c(F)cccc23)CC1")
"true"

// query Confirm or reject: K of `O=C(N[C@H]1CCCC[C@H]1Nc1c(C(=O)N2CCOCC2)cc(Br)cc1[N+](=O)[O-])c1cc(=O)[nH]c2c(F)cccc12` lies strictly below 0.02 s⁻¹
// result true

* * *

- ASSAY DETAILS: Observed MRT (0 to infinity) in ICR mouse at 20 mg/kg, po
- Format: ADME, organism-based
- TEST CONDITIONS: in vivo
ASSAY ENDPOINT: MRT inf
Give me the value, and tack the unit on after it.

The compound identified as `CNC(=O)c1cc(Br)cc([N+](=O)[O-])c1N[C@@H]1CCCC[C@@H]1NC(=O)c1cc(=O)[nH]c2ccccc12` registered its MRT inf at 5.09 h

The compound identified as `O=C(N[C@H]1CCCC[C@H]1Nc1c(C(=O)N2CCOCC2)cc(Br)cc1[N+](=O)[O-])c1cc(=O)[nH]c2c(F)cccc12` registered its MRT inf at 0.65 h

The compound identified as `CN1CCN(C(=O)c2cc(Br)cc([N+](=O)[O-])c2N[C@@H]2CCCC[C@@H]2NC(=O)c2cc(=O)[nH]c3c(F)cccc23)CC1` registered its MRT inf at 1.44 h

The compound identified as `CNC(=O)c1cc(Br)cc([N+](=O)[O-])c1N[C@@H]1CCCC[C@@H]1NC(=O)c1cc(=O)[nH]c2c(F)cccc12` registered its MRT inf at 1.56 h
